Listing of recorded relative induction of RFP reporter by entry.
System: heterologous inducible system pEH040 (rhamnose/acrylate/cumate/itaconate set)
protocol-summary: relative induction of RFP reporter vs primary effector (background-corrected); higher = stronger activation of the biosensor
details: inducer concentration 5 mM; 6 h; Cupriavidus necator H16; minimal medium + 0.4% gluconate

| compound | system-name | relative induction of RFP reporter / % |
| --- | --- | --- |
| O=C(O)/C=C/C(=O)O [fumarate] | heterologous inducible system pEH040 (rhamnose/acrylate/cumate/itaconate set) | -1.36 |
| C[C@H](N)C(=O)O [L-alanine] | heterologous inducible system pEH040 (rhamnose/acrylate/cumate/itaconate set) | -1.7 |
| O=C(O)CC(=O)C(=O)O [oxaloacetate] | heterologous inducible system pEH040 (rhamnose/acrylate/cumate/itaconate set) | -0.91 |
| O=c1[nH]cnc2nc[nH]c12 [hypoxanthine] | heterologous inducible system pEH040 (rhamnose/acrylate/cumate/itaconate set) | -0.718 |
| NCCS(=O)(=O)O [taurine] | heterologous inducible system pEH040 (rhamnose/acrylate/cumate/itaconate set) | -0.555 |
| N[C@@H](CC(=O)O)C(=O)O [L-aspartate] | heterologous inducible system pEH040 (rhamnose/acrylate/cumate/itaconate set) | -1.36 |
| NCC(O)C(=O)O (configuration not stated) [3-amino-2-hydroxypropanoate] | heterologous inducible system pEH040 (rhamnose/acrylate/cumate/itaconate set) | 0.821 |
| O=C(O)/C=C\C=C/C(=O)O [cis,cis-muconate] | heterologous inducible system pEH040 (rhamnose/acrylate/cumate/itaconate set) | 0.756 |
| CC(N)CC(=O)O (configuration not stated) [3-aminobutanoate] | heterologous inducible system pEH040 (rhamnose/acrylate/cumate/itaconate set) | 0.21 |
| O=C(O)C(O)C(=O)O [tartronic acid] | heterologous inducible system pEH040 (rhamnose/acrylate/cumate/itaconate set) | 0.945 |
| NCCc1ccc(O)c(O)c1 [dopamine] | heterologous inducible system pEH040 (rhamnose/acrylate/cumate/itaconate set) | 1.22 |
| Cn1c(=O)c2c(ncn2C)n(C)c1=O [caffeine] | heterologous inducible system pEH040 (rhamnose/acrylate/cumate/itaconate set) | 1.6 |
| NC(C(=O)O)c1ccccc1 (racemic) [D,L-2-phenylglycine] | heterologous inducible system pEH040 (rhamnose/acrylate/cumate/itaconate set) | 0.705 |
| O=C(O)C1CCCC1 [cyclopentane-1-carboxylate] | heterologous inducible system pEH040 (rhamnose/acrylate/cumate/itaconate set) | 7.83 |
| C[C@H](O)C(=O)O [L-lactate] | heterologous inducible system pEH040 (rhamnose/acrylate/cumate/itaconate set) | -1.88 |
| N[C@@H](Cc1c[nH]c2ccccc12)C(=O)O [L-tryptophan] | heterologous inducible system pEH040 (rhamnose/acrylate/cumate/itaconate set) | -1.03 |
| O=C(O)C1=CCCCC1 [cyclohexene-1-carboxylate] | heterologous inducible system pEH040 (rhamnose/acrylate/cumate/itaconate set) | 1.34 |
| O=C(O)C(O)c1ccccc1 (configuration not stated) [mandelic acid] | heterologous inducible system pEH040 (rhamnose/acrylate/cumate/itaconate set) | 1.17 |
| O=C(O)CC(CC(=O)O)C(=O)O [tricarballylate] | heterologous inducible system pEH040 (rhamnose/acrylate/cumate/itaconate set) | 0.497 |
| OC[C@@H](O)[C@@H](O)[C@H](O)[C@H](O)CO [D-mannitol] | heterologous inducible system pEH040 (rhamnose/acrylate/cumate/itaconate set) | 0.166 |
| Oc1ccc(O)cc1 [hydroquinone] | heterologous inducible system pEH040 (rhamnose/acrylate/cumate/itaconate set) | 2.73 |
| O=C(O)C[C@H](O)C(=O)O [L-malate] | heterologous inducible system pEH040 (rhamnose/acrylate/cumate/itaconate set) | -0.274 |

* * *

Tested on: PhgR/P_H16_RS05530 phenylglyoxylate biosensor (pEH155)
protocol-summary: relative induction of RFP reporter vs primary effector (background-corrected); higher = stronger activation of the biosensor
details: inducer concentration 5 mM; 6 h; Cupriavidus necator H16; minimal medium + 0.4% gluconate
# Lookup of reported relative induction of RFP reporter keyed by entry

| compound | relative induction of RFP reporter [%] |
| --- | --- |
| O=c1cc[nH]c(=O)[nH]1 [uracil] | -0.376 |
| NCCS(=O)(=O)O [taurine] | -0.395 |
| NCC(O)C(=O)O (configuration not stated) [3-amino-2-hydroxypropanoate] | -0.304 |
| O=C(O)C1=CCCCC1 [cyclohexene-1-carboxylate] | -0.121 |
| CC(=O)CCC(=O)O [levulinic acid] | -0.187 |
| O=C(O)C(O)C(=O)O [tartronic acid] | -0.449 |
| O=S(=O)(O)CCO [isethionate] | -0.518 |
| O=C(O)C[C@H](O)C(=O)O [L-malate] | -0.316 |
| O=C(O)c1ccc(O)cc1 [4-hydroxybenzoate] | -0.153 |
| O=CC(=O)O | -0.587 |
| O=C(O)[C@@H](O)[C@@H](O)[C@H](O)[C@@H](O)C(=O)O [glucarate] | -0.232 |
| O=C(O)C1CCCC1 [cyclopentane-1-carboxylate] | -0.24 |

* * *

Reported relative induction of RFP reporter values for a set of molecules
System: KynR/P_H16_RS14030 L-kynurenine biosensor (pEH136)
protocol-summary: relative induction of RFP reporter vs primary effector (background-corrected); higher = stronger activation of the biosensor
details: inducer concentration 5 mM; 6 h; Cupriavidus necator H16; minimal medium + 0.4% gluconate
outcome-measure: relative induction of RFP reporter (%)

| molecule | system-name | observed-value |
| --- | --- | --- |
| NCC(=O)O [glycine] | KynR/P_H16_RS14030 L-kynurenine biosensor (pEH136) | 0.211 |
| O=C(O)C[C@H](O)C(=O)O [L-malate] | KynR/P_H16_RS14030 L-kynurenine biosensor (pEH136) | 0.34 |
| NC(=O)CC[C@H](N)C(=O)O [L-glutamine] | KynR/P_H16_RS14030 L-kynurenine biosensor (pEH136) | -0.513 |
| NCCS(=O)(=O)O [taurine] | KynR/P_H16_RS14030 L-kynurenine biosensor (pEH136) | -0.215 |
| C[C@@H](O)C(=O)O [D-lactate] | KynR/P_H16_RS14030 L-kynurenine biosensor (pEH136) | 0.0968 |
| CC(=O)CCC(=O)O [levulinic acid] | KynR/P_H16_RS14030 L-kynurenine biosensor (pEH136) | -0.594 |
| NCC(O)C(=O)O (stereo not drawn) [3-amino-2-hydroxypropanoate] | KynR/P_H16_RS14030 L-kynurenine biosensor (pEH136) | -0.0139 |
| O=C(O)/C=C/C(=O)O [fumarate] | KynR/P_H16_RS14030 L-kynurenine biosensor (pEH136) | -0.13 |
| O=C(O)C1CCCC1 [cyclopentane-1-carboxylate] | KynR/P_H16_RS14030 L-kynurenine biosensor (pEH136) | 0.335 |
| Cn1c(=O)c2c(ncn2C)n(C)c1=O [caffeine] | KynR/P_H16_RS14030 L-kynurenine biosensor (pEH136) | 1.64 |
| O=CC(=O)O [glyoxylate] | KynR/P_H16_RS14030 L-kynurenine biosensor (pEH136) | -0.15 |
| O=C(O)CC(=O)C(=O)O [oxaloacetate] | KynR/P_H16_RS14030 L-kynurenine biosensor (pEH136) | -0.384 |
| NCCc1ccc(O)c(O)c1 [dopamine] | KynR/P_H16_RS14030 L-kynurenine biosensor (pEH136) | 0.568 |

* * *

System: BadR/P_H16_RS27200 cyclohexanecarboxylate biosensor (pEH159)
protocol-summary: relative induction of RFP reporter vs primary effector; higher = stronger activation
details: inducer concentration 5 mM; 6 h; Cupriavidus necator H16; minimal medium + 0.4% gluconate
outcome-measure: relative induction of RFP reporter (%)

| compound | observed-value |
| --- | --- |
| O=C(O)C(O)C(O)C(=O)O (stereo not given) [tartrate] | -0.687 |
| NCCC(=O)O [β-alanine] | -0.428 |
| O=CO [formate] | -0.738 |
| Nc1ccccc1C(=O)C[C@H](N)C(=O)O [L-kynurenine] | -0.604 |
| O=C(O)c1ccccc1 [benzoate] | -0.805 |
| N[C@@H](Cc1ccccc1)C(=O)O [L-phenylalanine] | -0.263 |
| OC1OC[C@H](O)[C@H](O)[C@H]1O (mixture of isomers) [L-arabinose] | -0.67 |
| O=C(O)CCO [3-hydroxypropanoate] | 0.0132 |
| CC(=O)C(C)O (stereo not given) [acetoin] | -0.805 |
| O=C(O)c1ccccc1O [salicylate] | -0.169 |

* * *

Tested on: OapR/P_H16_RS01330 beta-alanine biosensor (pEH147)
protocol-summary: relative induction of RFP reporter vs primary effector; higher = stronger activation
details: inducer concentration 5 mM; 6 h; Cupriavidus necator H16; minimal medium + 0.4% gluconate
outcome-measure: relative induction of RFP reporter (%)

| compound | observed-value |
| --- | --- |
| OC1OC[C@H](O)[C@H](O)[C@H]1O (mixture of isomers) | -0.0273 |
| O=C(O)c1ccccc1 [benzoate] | -0.947 |
| O=c1[nH]c(=O)c2nc[nH]c2[nH]1 | 1.27 |
| O=C(O)C(O)C(O)C(=O)O (stereo not drawn) [tartrate] | -0.132 |
| O=C(O)c1ccccc1O [salicylate] | -0.51 |
| N[C@@H](Cc1ccc(O)cc1)C(=O)O | -1.24 |
| O=CO [formate] | 0.208 |
| O=C(O)CS(=O)(=O)O [sulfonatoacetate] | -0.372 |

Where do these numbers come from? They come from the supplement of paper PMC7057948.
